# Study target: Endothelial lipase (EL) (Homo sapiens (Human))
# Sequence (Q9Y5X9 21-500): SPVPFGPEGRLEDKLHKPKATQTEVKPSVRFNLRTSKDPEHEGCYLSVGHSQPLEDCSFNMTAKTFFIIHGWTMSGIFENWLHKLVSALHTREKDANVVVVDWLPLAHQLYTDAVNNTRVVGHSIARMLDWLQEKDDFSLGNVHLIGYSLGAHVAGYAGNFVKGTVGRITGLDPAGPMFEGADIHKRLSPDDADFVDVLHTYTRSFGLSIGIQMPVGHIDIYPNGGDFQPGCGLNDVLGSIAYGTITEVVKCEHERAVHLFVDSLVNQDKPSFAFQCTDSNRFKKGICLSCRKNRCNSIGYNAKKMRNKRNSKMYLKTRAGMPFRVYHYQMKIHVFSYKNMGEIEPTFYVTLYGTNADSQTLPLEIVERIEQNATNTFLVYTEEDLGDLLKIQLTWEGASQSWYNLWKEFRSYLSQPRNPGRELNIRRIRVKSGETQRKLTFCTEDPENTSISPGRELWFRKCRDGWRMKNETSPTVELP
# Assay remarks: Endothelial lipase (EL) enzymatic assay with fluorescent substrate A10070 in DMPG vesicles
# Type: biochemical
Attribute measured: IC50 (nM)

The following compounds have reported results that may help.
- COCCS(=O)(=O)C(C(=O)NCC(=O)NC1CC1)c1nc2ccc(-c3ccc(C(=O)O)cc3)cc2s1 (centres unmarked): 48
- COCCS(=O)(=O)C(C(=O)NCC(=O)NC1CC1)c1nc2cc(-c3ccc(F)nc3C)ccc2s1 (centres unmarked): 82
- COc1cc(-c2ccc3nc(C(C(=O)NCC(=O)NC4CC4)S(=O)(=O)c4ccc(F)cc4)sc3c2)ccn1 (centres unmarked): 73

A. CC(C)S(=O)(=O)C(C(=O)NCC(=O)NC1CC1)c1nc2cc(F)c(-c3ccc(C#N)nc3)cc2s1 (centres unmarked)
B. COc1nccc(-c2cc3nc(C(C(=O)NCC(=O)NC4CC4)S(C)(=O)=O)sc3cc2F)c1F (centres unmarked)
Query :: Of A and B , whose reported IC50 is the larger number? Respond using the label that marks the chosen record.
Result :: A
(A: 29 nM, B: 17 nM)

a. COCCNC(=O)CNC(=O)C(c1nc2ccc(-c3ccc(F)nc3)cc2s1)S(=O)(=O)CCOC (centres unmarked)
b. Cc1cc(-c2cc3nc(C(C(=O)NCC(=O)NC4CC4)S(C)(=O)=O)sc3cc2F)cnn1 (centres unmarked)
Query :: Of a and b , whose reported IC50 is the larger number? Respond using the label that marks the chosen record.
Result :: a

1. CC(C)S(=O)(=O)C(C(=O)NCC(=O)NC1CC1)c1nc2cc(-c3ccc4cnn(C)c4c3)c(F)cc2s1 (centres unmarked)
2. CC(=O)Nc1cccc(-c2ccc3nc(C(C(=O)NCC(=O)NC4CC4)S(=O)(=O)Cc4cccc(C#N)c4)sc3c2)c1 (centres unmarked)
3. COCCS(=O)(=O)C(C(=O)NCC(=O)NC1CC1)c1nc2cc(Cl)c(-c3ccc(F)nc3)cc2s1 (centres unmarked)
4. COc1ncccc1-c1cc2sc(C(C(=O)NCC(=O)NC3CC3)S(C)(=O)=O)nc2cc1F (centres unmarked)
Query :: # rank_down: sort by IC50, max first List the labels according to the requested ordering.
Result :: 2, 3, 1, 4

A. Cc1cc(-c2cc3nc(C(C(=O)NCC(=O)NCCOC(C)C)S(C)(=O)=O)sc3cc2F)cnn1 (centres unmarked)
B. Cc1nc2cc(-c3cc4sc(C(C(=O)NCC(=O)NC5CC5)S(C)(=O)=O)nc4cc3F)ccc2s1 (centres unmarked)
Query :: Of A and B , whose reported IC50 is the larger number? Respond using the label that marks the chosen record.
Result :: A

###

# Study target: UniProtKB Q9Y5X9
# Assay remarks: Endothelial lipase (EL) enzymatic assay with fluorescent substrate A10070 in DMPG vesicles
# Assay type: biochemical
Attribute measured: IC50 (nM)

The following compounds have reported results that may help.
• CC(C)S(=O)(=O)C(C(=O)NCC(=O)NC1CC1)c1nc2cc(-c3ccc4[nH]c(=O)ccc4c3)c(F)cc2s1 (stereo not shown) [Example 270] = 9
• COCCS(=O)(=O)C(C(=O)NCC(=O)NC1CC1)c1nc2cc(-c3ccc(COC)cc3)ccc2s1 (stereo not shown) [Example 338] = 42

a. O=C(CNC(=O)C(c1nc2cc(-c3ccc(NC(=O)OCc4ccccc4)cc3)c(F)cc2s1)S(=O)(=O)CCC(F)(F)F)NC1CC1 (stereo not shown) [Example 9]
b. O=C(CNC(=O)C(c1nc2cc(F)c(-c3cncnc3)cc2s1)S(=O)(=O)c1ccc(F)c(F)c1)NC1CC1 (stereo not shown) [Example 445]
Query :: Of a and b , whose reported IC50 is the larger number? Respond using the label that marks the chosen record.
Result :: b
(b: 59 nM, a: 1 nM)

Source of measurements: patent US10173991B2
